List of growth values.
Tested on: HCT-116 colon
Assay: NCI-60 one-dose screen, 48 h (100 = growth as untreated, 0 = no growth, -100 = all killed)
Conditions: 10 µM unless noted
The panel holds about 83,000 compounds, 20% with a hit somewhere; the sample as a whole holds those more often.
MEASUREMENT NAME: growth (%)

[[record]]
molecule = "Fc1ccc2nc(-c3cc(-c4ccc5c(c4)OCO5)n[nH]3)[nH]c2c1"
target = "HCT-116 colon"
measurement_name = "growth"
number = 49.6

[[record]]
molecule = "COc1cccc(-c2nn(-c3ccccc3)cc2-c2ccnc(NCCCNS(=O)(=O)c3ccc(C(F)(F)F)cc3)c2)c1"
target = "HCT-116 colon"
measurement_name = "growth"
number = 22.9

[[record]]
molecule = "COc1ccc(-c2nc(SCC(=O)Nc3ccc(C(C)=O)cc3)[nH]c(=O)c2C#N)cc1"
target = "HCT-116 colon"
measurement_name = "growth"
number = 76.3

[[record]]
molecule = "Cc1ccc2c(c1)c(-c1nc(-c3c[nH]c4ncccc34)cs1)cn2C"
target = "HCT-116 colon"
measurement_name = "growth"
number = 85.1

[[record]]
molecule = "CCN(CC)C(=O)CCCCCn1c2ccccc2c2c3c(c4c5ccccc5[nH]c4c21)C(=O)N(O)C3=O"
target = "HCT-116 colon"
measurement_name = "growth"
number = 37.8

[[record]]
molecule = "CC1(C)NC2=C(C(Nc3cccnc3)N1)C(c1ccc([N+](=O)[O-])cc1)C(C(=O)c1ccc(N=[N+]=[N-])cc1)O2 (stereo not drawn)"
target = "HCT-116 colon"
measurement_name = "growth"
number = 104

[[record]]
molecule = "c1ccc2[nH]c(-c3ccc(Nc4nc(N5CCCCC5)nc(N5CCOCC5)n4)cc3)nc2c1"
target = "HCT-116 colon"
measurement_name = "growth"
number = 9.65

[[record]]
molecule = "COc1ccc(/C=C/C(=O)c2ccc([N+](=O)[O-])cc2)cc1"
target = "HCT-116 colon"
measurement_name = "growth"
number = 99.2

[[record]]
molecule = "Cc1cc(N(CCCNc2ccnc3cc(Cl)ccc23)Cc2ccco2)nc(N2CCN(C)CC2)n1"
target = "HCT-116 colon"
measurement_name = "growth"
number = 28.3

[[record]]
molecule = "Cc1cc(N2CCCCC2)nc(N(CCNc2ccnc3cc(Cl)ccc23)Cc2ccco2)n1"
target = "HCT-116 colon"
measurement_name = "growth"
number = 2.13

[[record]]
molecule = "O=Cc1nc2ccccc2[nH]1"
target = "HCT-116 colon"
measurement_name = "growth"
number = 88.5

[[record]]
molecule = "NC(N)=N/N=C/c1ccc(-c2ccc(-c3ccc(Cl)cn3)s2)cc1"
target = "HCT-116 colon"
measurement_name = "growth"
number = 50.2

[[record]]
molecule = "Cn1cc(-c2nc(-c3c[nH]c4ncccc34)cs2)c2cc(Cl)ccc21"
target = "HCT-116 colon"
measurement_name = "growth"
number = 32.2

[[record]]
molecule = "COc1cccc(-c2nn(-c3ccccc3)cc2-c2ccnc(NCCNS(=O)(=O)c3ccc(Cl)cc3)c2)c1"
target = "HCT-116 colon"
measurement_name = "growth"
number = 20.6

[[record]]
molecule = "COc1ccc2[nH]cc(-c3nc(-c4c[nH]c5ncccc45)cs3)c2c1"
target = "HCT-116 colon"
measurement_name = "growth"
number = 18.1

[[record]]
molecule = "N#C/C(=C\\c1ccc(-c2ccc(Cl)cc2)o1)c1nc(-c2ccco2)cs1"
target = "HCT-116 colon"
measurement_name = "growth"
number = 101

[[record]]
molecule = "C=C(C)[C@@H]1CC[C@]2(C)[C@H](CC=C3[C@@H]4CC(C)(C)CC[C@]4(C=O)CC[C@]32C)[C@@]1(C)CCCN"
target = "HCT-116 colon"
measurement_name = "growth"
number = 22.9

[[record]]
molecule = "c1cc(N2CCCC2)c2nc(-c3[nH]ncc3Nc3ncnc4[nH]ccc34)[nH]c2c1"
target = "HCT-116 colon"
measurement_name = "growth"
number = -9.45

[[record]]
molecule = "COc1cc2nc(Cl)nc(Nc3cccc(C(=O)/C=C/c4ccc(F)cc4)c3)c2cc1OC"
target = "HCT-116 colon"
measurement_name = "growth"
number = -41.2

[[record]]
molecule = "C#CCn1c2c(c3ccccc31)C[C@]1(C)[C@H]3CC[C@@H]4[C@@H]5C(=CCC[C@H]5C(=C)C)CC[C@@]4(C)[C@]3(C)CC[C@H]1C2(C)C"
target = "HCT-116 colon"
measurement_name = "growth"
number = 101

[[record]]
molecule = "CN1CCN(c2ccc3nc(-c4[nH]ncc4Nc4ncnc5c4OCCCN5)[nH]c3c2)CC1"
target = "HCT-116 colon"
measurement_name = "growth"
number = -11.8

[[record]]
molecule = "COc1ccc2c(c1)c(-c1nc(-c3cn(C)c4ncccc34)cs1)cn2CCCN1CCCCC1"
target = "HCT-116 colon"
measurement_name = "growth"
number = -93.2

[[record]]
molecule = "CC1(C)CC[C@]2(C(=O)NCCNCCN)CC[C@]3(C)C(=CC[C@@H]4[C@@]5(C)CCC(=O)C(C)(C)[C@@H]5CC[C@]43C)[C@@H]2C1"
target = "HCT-116 colon"
measurement_name = "growth"
number = -54

[[record]]
molecule = "COc1cc2ncnc(Nc3ccc(OCc4cccc(F)c4)c(Cl)c3)c2cc1NC(=O)C1CCCC1"
target = "HCT-116 colon"
measurement_name = "growth"
number = 83.4

[[record]]
molecule = "CCCNc1nc(N(C)O)nc(N(C)O)n1"
target = "HCT-116 colon"
measurement_name = "growth"
number = 5.06

[[record]]
molecule = "N#Cc1cnc2cc(OC[C@@H](O)CO)c(NC(=O)CC3CSSC3)cc2c1Nc1ccc(OCc2cccc(F)c2)c(Cl)c1"
target = "HCT-116 colon"
measurement_name = "growth"
number = -60.5

[[record]]
molecule = "CCCCCCCC(=O)SCC/C=C/[C@@H]1CC(=O)NCc2cccc(n2)CN(Cc2ccc(Cl)cc2)CC(=O)N[C@@H](C(C)C)C(=O)O1"
target = "HCT-116 colon"
measurement_name = "growth"
number = -1.93

[[record]]
molecule = "O=S(=O)(NCCNc1cc(-c2cn(-c3ccccc3)nc2-c2cccc(O)c2)ccn1)c1cccc(F)c1"
target = "HCT-116 colon"
measurement_name = "growth"
number = 23.2


----------
List of growth values.
Test system: COLO 205 colon
Test: NCI-60 one-dose screen, 48 h (100 = growth as untreated, 0 = no growth, -100 = all killed)
Settings: 10 µM unless noted
Compounds without any hit were thinned out: in the full panel of roughly 83,000, 20% have a hit. Calls of active or inactive are those of the source. How the source made its calls: active means growth percent below 10; inactive means the rest.
MEASUREMENT NAME: growth

[[record]]
compound = "NC1=C(C/C(N)=N\\O)C(c2ccccc2Cl)c2c(ccc3ccccc23)O1 (stereo not given)"
measurement_name = "growth"
result = "118% (inactive)"

[[record]]
compound = "COc1cc(-c2cc(-c3nc4ccc(F)cc4[nH]3)[nH]n2)cc(OC)c1OC"
measurement_name = "growth"
result = "20.9% (inactive)"

[[record]]
compound = "O=S(=O)(NCCNc1cc(-c2cn(-c3ccccc3)nc2-c2cccc(O)c2)ccn1)c1cccc(F)c1"
measurement_name = "growth"
result = "-4.68% (active)"

[[record]]
compound = "CC(=O)O[C@H]1CC[C@]2(C)[C@H]3CC=C4[C@@H]5[C@H](C)[C@@H](C)CC[C@]5(C(=O)NCCNCCNCCN)CC[C@@]4(C)[C@]3(C)CC[C@H]2C1(C)C"
measurement_name = "growth"
result = "72.5% (inactive)"

[[record]]
compound = "CC/C=C\\C[C@H]1CC=C2C(=O)C=C[C@@H]2CC=CCCCC(=O)O[C@@H](CCCCC)CC=C2C(=O)C=C[C@@H]2CC=CCCCC(=O)O[C@@H](CCCCC)CC=C2C(=O)C=C[C@@H]2CC=CCCCC(=O)O[C@@H](CCCCC)CC=C2C(=O)C=C[C@@H]2CC=CCCCC(=O)O1"
measurement_name = "growth"
result = "-26.7% [7.9 µM] (active)"


----------
System: CCRF-CEM leukemia
Assay: NCI-60 one-dose screen, 48 h
Details: 10 µM unless noted
About 83,000 compounds went through this panel and 20% of them were active in at least one assay; those are over-represented in the sample as a whole. Active and inactive are the calls of the source. Rule for the calls: active = growth percent below 10; inactive = the rest.
Classes used: T = active, F = inactive

[[record]]
compound = "CCCCn1c(-c2ccc(O)cc2)cn2c3c(=O)[nH]c(=O)n(C)c3nc12"
class = "F"

[[record]]
compound = "C/C(=N\\NC(=O)C(C)SC(C)C(=O)N/N=C(\\C)c1cccnc1)c1cccnc1 (centres undefined)"
class = "F"

[[record]]
compound = "Cc1cc2nc3c4cc(N)ccc4n(CCN(C)C)c3nc2cc1C"
class = "F"

[[record]]
compound = "COc1cc2c(cc1-c1c(C)noc1C)ncc1nc(C3CCCCC3)n([C@@H](C)COC(F)F)c12"
class = "F"

[[record]]
compound = "Cn1c(/C(C#N)=C/c2ccc3ccccc3c2)cc2ccccc21"
class = "F"

[[record]]
compound = "c1ccc2c(-c3nc(-c4c[nH]c5ncccc45)cs3)c[nH]c2c1"
class = "F"

[[record]]
compound = "CC(C)(C)c1ccc(OP(=S)(N/N=C/c2ccccc2O)Oc2ccc(C(C)(C)C)cc2)cc1"
class = "F"

[[record]]
compound = "Oc1cc(/C=C/c2nc(N3CCOCC3)c3cc(Cl)c(Cl)cc3n2)cc(O)c1O"
class = "F"

[[record]]
compound = "COC(=O)c1cc(=O)nc(N/N=C/c2ccc(C)cc2)s1"
class = "F"

[[record]]
compound = "Cc1nn(-c2ccc(Cl)cc2)c(=O)n1CCn1cnc2ccccc21"
class = "F"

[[record]]
compound = "N#CC1c2ccccc2-c2ccccc2N1C(=O)c1ccccc1 (centres undefined)"
class = "F"

[[record]]
compound = "COC(=O)[C@@H]1[C@H]2C[C@H]3c4[nH]c5cc(OC)ccc5c4CCN3C[C@@H]2C[C@H](OC(=O)/C=C/c2ccnc(OC)c2)[C@H]1OC"
class = "F"

[[record]]
compound = "CCOC(=O)N1CCN(CCCCOc2ccc(C(C)(C)CC)cc2)CC1"
class = "F"

[[record]]
compound = "CN1CCN(c2nc(-c3csc(-c4cccs4)n3)cc3ccccc23)CC1"
class = "F"

[[record]]
compound = "Cc1ccsc1-c1ccc2c(c1)COC2(CCCN(C)C)c1ccc(F)cc1 (centres undefined)"
class = "F"

[[record]]
compound = "COc1cccc(-c2nn(-c3ccccc3)cc2-c2ccnc(NCCCNS(=O)(=O)c3ccc(Br)cc3)c2)c1"
class = "F"

[[record]]
compound = "O=C1/C(=C\\c2ccc(Br)o2)SC(=S)N1CCc1ccc(O)cc1"
class = "F"

[[record]]
compound = "N#CC1=C(N)Oc2ccc3ccccc3c2C1c1ccccc1 (centres undefined)"
class = "F"

[[record]]
compound = "Fc1ccc(Nc2ccc3c(OCCCN4CCOCC4)cccc3n2)cc1F"
class = "F"

[[record]]
compound = "NS(=O)(=O)c1ccc(CCNC(=O)/C=C/c2ccc(Cl)cc2)cc1"
class = "F"

[[record]]
compound = "Cc1cc2nc3c4cc(Cl)ccc4n(CCN(C)C)c3nc2cc1C"
class = "F"

[[record]]
compound = "Fc1ccc(Nc2nc(Nc3ccc(-c4nc5ccccc5[nH]4)cc3)nc(N3CCCC3)n2)cc1"
class = "T"

[[record]]
compound = "O=C(O)/C(=C/c1ccc(O)cc1)c1ccccc1"
class = "F"

[[record]]
compound = "COc1cccc(-c2nn(-c3ccccc3)cc2-c2ccnc(NCCCNS(=O)(=O)c3cccc(F)c3)c2)c1"
class = "F"

[[record]]
compound = "C/C(Cc1ccc(Cl)cc1)=C(/c1ccc(Cl)cc1)c1ccc(OCCN2CCCC2)cc1"
class = "F"

[[record]]
compound = "CCCCCCCC(=O)SCC/C=C/[C@@H]1CC(=O)NCc2cccc(n2)CN(Cc2ccc3ccccc3c2)CC(=O)N[C@@H](C(C)C)C(=O)O1"
class = "F"

[[record]]
compound = "NC1=NN=C2N(N)C(=O)c3cnn(-c4ccccc4)c3N2c2nc(-c3ccccc3)cc(-c3ccccc3)c21"
class = "F"

[[record]]
compound = "c1ccc2[nH]c(-c3ccc(Nc4nc(N5CCCCC5)nc(N5CCOCC5)n4)cc3)nc2c1"
class = "T"

[[record]]
compound = "COc1ccc(/C=C/C(=O)NCCO)cc1"
class = "F"

[[record]]
compound = "NC(Cc1ccc(O)cc1)C(=O)N/N=C/c1ccccc1O (centres undefined)"
class = "F"

[[record]]
compound = "CC[C@H](CC[C@@H](C)[C@H]1CC[C@H]2[C@@H]3/C(=C/c4cccnc4)C(=O)C4=CC(=O)CC[C@]4(C)[C@H]3CC[C@]12C)C(C)C"
class = "F"

[[record]]
compound = "Nc1ccc(Br)cn1"
class = "F"

[[record]]
compound = "CCN1CCN(C(=O)[C@@]2(C)CC[C@]3(C)CC[C@]4(C)C(=CC(=O)[C@@H]5[C@@]6(C)CC[C@H](OC7C[C@@H](O)[C@@H](O)C(C)O7)C(C)(C)[C@@H]6CC[C@]54C)[C@@H]3C2)CC1 (some centres undefined)"
class = "T"

[[record]]
compound = "O=S(=O)(NCCNc1cc(-c2cn(-c3ccccc3)nc2-c2cccc(O)c2)ccn1)c1cccc(F)c1"
class = "F"

